Every entry's value here was drawn from PubChem BioAssay (NCI).

- methodNotes: NCI Yeast Anticancer Drug Screen. Data for the cln2 rad14 strain (AID 165);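 also: 0% = growth equal to vehicle treated cultures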
- conditionsUsed: S. cerevisiae cln2 rad14 strain, stronger effect = higher value; at 50.0 µM unless noted
Compounds without any hit were thinned out: in the full panel of roughly 79,000, 15% have a hit.
A collection of compounds and their measured growth inhibition

compound: O=C1N(C2CCCCC2)C(/C=C/c2ccccc2)C1(c1ccccc1)c1ccccc1 (configuration not stated)
growth inhibition, %: 19.6
//
compound: Nc1cc(S(=O)(=O)O)cc2cc(S(=O)(=O)O)cc(S(=O)(=O)O)c12
growth inhibition, %: -144
//
compound: C=C1COC(O)(C2OCOC(C3CC(=O)NC(=O)C3)C2O)C1C (configuration not stated)
growth inhibition, %: 89.8
//
compound: CCCCCCOc1ccccc1CO
growth inhibition, %: 2
//
compound: CCNc1cc(Cl)c(C(=O)O)cc1[N+](=O)[O-]
growth inhibition, %: -22.7
//
compound: ClCCCN(CCCCl)c1ccc(C=Nc2cccc(Cl)c2)c(Cl)c1
growth inhibition, %: 85.2
//
compound: CC(=O)OCC1OC(n2c(=O)[nH]c(=O)c3n[nH]nc32)C(OC(C)=O)C(OC(C)=O)C1OC(C)=O (configuration not stated)
growth inhibition, %: 24.9
//
compound: COc1ccc(C(NC(N)=O)c2cc3c(cc2OC(C)=O)OCO3)cc1 (configuration not stated)
growth inhibition, %: -9.05
//
compound: CC(C)COC(=O)/C=C/c1ccccc1
growth inhibition, %: 7.3
//
compound: COc1ccc2nc3cc([N+](=O)[O-])ccc3c(NCCCN(C)C)c2c1
growth inhibition, %: 20.9
//
compound: C=C(C)C(=NC(C)(C)C)Nc1ccc(C(=O)OCC)cc1
growth inhibition, %: -21.2
//
compound: CC(C)=C(Nc1ccccc1)NC(C)C
growth inhibition, %: -16.2
